system: SCC-3 (B-Cell Non-Hodgkin's Lymphoma); test: Bliss excess, mean over the matrix (fraction); higher = more synergy
// Condition not met strictly below 0.03 in Bliss excess; Condition met otherwise

- Cc1cc2ncnn2cc1Nc1ncc2c(n1)n(C1CCOCC1)c(=O)n2C [AZD7648] + O=C(c1cc(Cc2n[nH]c(=O)c3ccccc23)ccc1F)N1CCN(C(=O)C2CC2)CC1 [Olaparib] (first compound max 10 µM, 7x7, partner max 10 µM): Condition not met
- NC1(C(=O)N[C@@H](CCO)c2ccc(Cl)cc2)CCN(c2ncnc3[nH]ccc23)CC1 [Capivasertib] + COc1nnc2ccc(N3CCC(c4ccc(OCCN5CCN(C)C(=O)[C@H]5C)cc4)CC3)nn12 [AZD5153] (first compound max 10 µM, 7x7, partner max 1 µM): Condition not met
- C=CCn1c(=O)c2cnc(Nc3ccc(N4CCN(C)CC4)cc3)nc2n1-c1cccc(C(C)(C)O)n1 [AZD1775] + C[C@@H]1COCCN1C2=NC(=NC(=C2)C3(CC3)[S@](=N)(=O)C)C4=C5C=CNC5=NC=C4 [AZD6738] (first compound max 1 µM, partner max 10 µM): Condition met
- CN(CCO)CC[C@H](CSc1ccccc1)Nc1ccc(S(=O)(=O)NC(=O)c2ccc(N3CCC([C@@H](O)c4ccccc4-c4ccc(Cl)cc4)CC3)cc2)cc1S(=O)(=O)C(F)(F)F [AZD4320] + C=CCn1c(=O)c2cnc(Nc3ccc(N4CCN(C)CC4)cc3)nc2n1-c1cccc(C(C)(C)O)n1 [AZD1775] (first compound max 1 µM, partner max 1 µM): Condition met
- Cn1cnc2c(F)c(Nc3ccc(Br)cc3Cl)c(C(=O)NOCCO)cc21 [Selumetinib] + CCN(CCO)CCCOc1ccc2c(Nc3cc(CC(=O)Nc4cccc(F)c4)[nH]n3)ncnc2c1 [AZD2811] (first compound max 10 µM, 7x7, partner max 1 µM): Condition met
- Cc1c2c(nn1C)CSCc1cc(n(C)n1)CSc1cc(c3ccccc3c1)OCCCc1c(C(=O)O)n(C)c3c-2c(Cl)ccc13 [AZD5991] + CC1(C)CCC(CN2CCN(c3ccc(C(=O)NS(=O)(=O)c4ccc(NCC5CCOCC5)c([N+](=O)[O-])c4)c(Oc4cnc5[nH]ccc5c4)c3)CC2)=C(c2ccc(Cl)cc2)C1 [Venetoclax] (first compound max 1 µM, 7x7, partner max 1 µM): Condition not met
- CC(=O)c1c(C)c2cnc(Nc3ccc(N4CCNCC4)cn3)nc2n(C2CCCC2)c1=O [Palbociclib] + CC1(C)CCC(CN2CCN(c3ccc(C(=O)NS(=O)(=O)c4ccc(NCC5CCOCC5)c([N+](=O)[O-])c4)c(Oc4cnc5[nH]ccc5c4)c3)CC2)=C(c2ccc(Cl)cc2)C1 [Venetoclax] (first compound max 10 µM, 7x7, partner max 1 µM): Condition met
- C[C@@H](c1ccc2nccn2c1)n1nnc2ncc(-c3cnn(C)c3)nc21 [Savolitinib] + CN(CC[C@H](CSC1=CC=CC=C1)NC2=C(C=C(C=C2)S(=O)(=O)NC(=O)C3=CC=C(C=C3)N4CCC(CC4)[C@H](C5=CC=CC=C5C6=CC=C(C=C6)Cl)O)S(=O)(=O)C(F)(F)F)CCO [AZD4320] (first compound max 1 µM, 7x7, partner max 1 µM): Condition not met

----------
system: NCI-N87 (Gastric Carcinoma); test: Bliss excess, mean over the matrix (fraction); higher = more synergy
Each entry below carries its recorded Bliss excess.
Property Name: Bliss excess

• Cn1cnc2c(F)c(Nc3ccc(Br)cc3Cl)c(C(=O)NOCCO)cc21 [Selumetinib] + C[C@@H]1COCCN1C2=NC(=NC(=C2)C3(CC3)[S@](=N)(=O)C)C4=C5C=CNC5=NC=C4 [AZD6738] (first compound max 10 µM, 7x7, partner max 10 µM) = -0.0604
• Cn1cnc2c(F)c(Nc3ccc(Br)cc3Cl)c(C(=O)NOCCO)cc21 [Selumetinib] + CCN(CCO)CCCOc1ccc2c(Nc3cc(CC(=O)Nc4cccc(F)c4)[nH]n3)ncnc2c1 [AZD2811] (first compound max 10 µM, 7x7, partner max 1 µM) = -0.0173
• CC1(C)CCC(CN2CCN(c3ccc(C(=O)NS(=O)(=O)c4ccc(NCC5CCOCC5)c([N+](=O)[O-])c4)c(Oc4cnc5[nH]ccc5c4)c3)CC2)=C(c2ccc(Cl)cc2)C1 [Venetoclax] + Cc1cc2ncnn2cc1Nc1ncc2c(n1)n(C1CCOCC1)c(=O)n2C [AZD7648] (first compound max 1 µM, 7x7, partner max 10 µM) = -0.0609
• CCN(CCO)CCCOc1ccc2c(Nc3cc(CC(=O)Nc4cccc(F)c4)[nH]n3)ncnc2c1 [AZD2811] + C[C@@H]1COCCN1C2=NC(=NC(=C2)C3(CC3)[S@](=N)(=O)C)C4=C5C=CNC5=NC=C4 [AZD6738] (first compound max 1 µM, 7x7, partner max 10 µM) = -0.0855

----------
Each entry below carries its recorded combination Emax.
system: KP-2 (Pancreatic Carcinoma); assay: combination Emax (second highest fraction inhibited in the dose matrix, 72 h); higher = more inhibition; extreme values may be limits of the assay
Property Name: combination Emax

- Cc1nc(Nc2ncc(C(=O)Nc3c(C)cccc3Cl)s2)cc(N2CCN(CCO)CC2)n1 [Dasatinib] + CC(=O)Nc1cccc(-n2c(=O)n(C3CC3)c(=O)c3c(Nc4ccc(I)cc4F)n(C)c(=O)c(C)c32)c1 [Trametinib] (first compound max 2 µM, 7x7, partner max 1 µM): 0.712
- CC1(C)CCC(CN2CCN(c3ccc(C(=O)NS(=O)(=O)c4ccc(NCC5CCOCC5)c([N+](=O)[O-])c4)c(Oc4cnc5[nH]ccc5c4)c3)CC2)=C(c2ccc(Cl)cc2)C1 [Venetoclax] + CN(C)CCCOc1ccc(-c2ccc3ncc4c(c3c2)n(C2CCOCC2)c(=O)n4C)cn1 [AZD0156] (first compound max 1 µM, 7x7, partner max 1 µM): 0.19
- CS(=O)(=O)CCNCc1ccc(-c2ccc3ncnc(Nc4ccc(OCc5cccc(F)c5)c(Cl)c4)c3c2)o1 [Lapatinib] + C[C@@H](Oc1cc(-c2cnn(C3CCNCC3)c2)cnc1N)c1c(Cl)ccc(F)c1Cl [Crizotinib] (first compound max 10 µM, 7x7, partner max 10 µM): 0.788
- Cc1c2c(nn1C)CSCc1cc(n(C)n1)CSc1cc(c3ccccc3c1)OCCCc1c(C(=O)O)n(C)c3c-2c(Cl)ccc13 [AZD5991] + Cn1cnc2c(F)c(Nc3ccc(Br)cc3Cl)c(C(=O)NOCCO)cc21 [Selumetinib] (first compound max 1 µM, 7x7, partner max 3 µM): 0.749

----------
system: SCC-9 (Oral Cavity Carcinoma); assay: Bliss excess, mean over the matrix (fraction); higher = more synergy
Each entry below carries its recorded Bliss excess.
Property Name: Bliss excess

* CN(C)CCCOc1ccc(-c2ccc3ncc4c(c3c2)n(C2CCOCC2)c(=O)n4C)cn1 [AZD0156] + C[C@@H]1COCCN1C2=NC(=NC(=C2)C3(CC3)[S@](=N)(=O)C)C4=C5C=CNC5=NC=C4 [AZD6738] (first compound max 1 µM, 7x7, partner max 10 µM) | -0.0424
* CN(C)CCCOc1ccc(-c2ccc3ncc4c(c3c2)n(C2CCOCC2)c(=O)n4C)cn1 [AZD0156] + CCN(CCO)CCCOc1ccc2c(Nc3cc(CC(=O)Nc4cccc(F)c4)[nH]n3)ncnc2c1 [AZD2811] (first compound max 1 µM, 7x7, partner max 1 µM) | -0.014
* CCN(CCO)CCCOc1ccc2c(Nc3cc(CC(=O)Nc4cccc(F)c4)[nH]n3)ncnc2c1 [AZD2811] + C=CCn1c(=O)c2cnc(Nc3ccc(N4CCN(C)CC4)cc3)nc2n1-c1cccc(C(C)(C)O)n1 [AZD1775] (first compound max 1 µM, partner max 1 µM) | -0.0179
* O=C(c1cc(Cc2n[nH]c(=O)c3ccccc23)ccc1F)N1CCN(C(=O)C2CC2)CC1 [Olaparib] + Cc1c2c(nn1C)CSCc1cc(n(C)n1)CSc1cc(c3ccccc3c1)OCCCc1c(C(=O)O)n(C)c3c-2c(Cl)ccc13 [AZD5991] (first compound max 10 µM, 7x7, partner max 1 µM) | -0.0478

----------
system: NH-12 (Neuroblastoma); assay: Bliss excess, mean over the matrix (fraction); higher = more synergy
Property Name: Bliss excess

• CN(CCO)CC[C@H](CSc1ccccc1)Nc1ccc(S(=O)(=O)NC(=O)c2ccc(N3CCC([C@@H](O)c4ccccc4-c4ccc(Cl)cc4)CC3)cc2)cc1S(=O)(=O)C(F)(F)F [AZD4320] + C[C@@H](Nc1cc(F)cc(F)c1)c1cc(C(=O)N(C)C)cc2c(=O)cc(N3CCOCC3)oc12 [AZD8186] (first compound max 1 µM, 7x7, partner max 3 µM) = -0.0224
• CN(CCO)CC[C@H](CSc1ccccc1)Nc1ccc(S(=O)(=O)NC(=O)c2ccc(N3CCC([C@@H](O)c4ccccc4-c4ccc(Cl)cc4)CC3)cc2)cc1S(=O)(=O)C(F)(F)F [AZD4320] + CCN(CCO)CCCOc1ccc2c(Nc3cc(CC(=O)Nc4cccc(F)c4)[nH]n3)ncnc2c1 [AZD2811] (first compound max 1 µM, 7x7, partner max 1 µM) = -0.049
• COc1cccc(OCCCN)c1-c1cc(Nc2cnc(C#N)cn2)n[nH]1 [Prexasertib] + CCc1c2c(nc3ccc(O)cc13)-c1cc3c(c(=O)n1C2)COC(=O)[C@]3(O)CC [SN-38] (first compound max 1 µM, 7x7, partner max 0.3 µM) = -0.078
• CN(CCO)CC[C@H](CSc1ccccc1)Nc1ccc(S(=O)(=O)NC(=O)c2ccc(N3CCC([C@@H](O)c4ccccc4-c4ccc(Cl)cc4)CC3)cc2)cc1S(=O)(=O)C(F)(F)F [AZD4320] + C1CN(CCC1(C(=O)N[C@@H](CCO)C2=CC=C(C=C2)Cl)N)C3=NC=NC4=C3C=CN4 [Capivasertib] (first compound max 1 µM, 7x7, partner max 3 µM) = -0.0589
